- method-description: solvent given as SMILES
- experimental-parameters: in CC(=O)N(C)C
result-type: solvation free energy, 298 K (kcal/mol)
Numeric only. Scale: kcal/mol

Solved entries (count: 3):
For the compound shown here, `FS(F)(F)(F)(F)F` , give the reported solvation free energy, 298 K. 0.76

Query (compound): `CCBr` ; field requested: solvation free energy, 298 K -3.44

Looking for the measured solvation free energy, 298 K of `O=C(C(=O)c1ccccc1)c1ccccc1` , can you help? -12.6

Now turn to the next compound.
Which measured solvation free energy, 298 K value corresponds to `CCCCCCCCCCCCCCCCCCCCCCCC` ? -16.4

---

- method-description: solvent given as SMILES
- experimental-parameters: in CN(C)P(=O)(N(C)C)N(C)C
result-type: solvation free energy, 298 K
Please report the result as a number followed by the unit.

Illustrative cases are given below, each with its answer.
Name the reported solvation free energy, 298 K value associated with the compound `CCC(C)C` -2 kcal/mol

solvation free energy, 298 K for `FS(F)(F)(F)(F)F` ? 0.66 kcal/mol

What does the data say about its solvation free energy, 298 K? Entry: `CC(C)CC(C)C` -3.23 kcal/mol

Given `CCCC(C)C` , state its recorded solvation free energy, 298 K. -2.88 kcal/mol

Look at this compound and give its reported solvation free energy, 298 K. `C1CCCCC1` -3.47 kcal/mol

Consider now this further compound.
Form field: reported solvation free energy, 298 K of `S` -2.64 kcal/mol

---

- method-description: solvent given as SMILES
- experimental-parameters: in CCCCN(C=O)CCCC
Entries and their solvation free energy, 298 K
Please respond with the number in kcal/mol and leave the unit unwritten.

// solved cases for solvation free energy, 298 K follow
Tell me the measured solvation free energy, 298 K of `ClC(Cl)(Cl)Cl` , please. -4.11

Fill in the blank: the reported solvation free energy, 298 K of `c1ccccc1` is ____. -4.26

Item `ClCCl` has what recorded solvation free energy, 298 K? -3.92

Please give the measured solvation free energy, 298 K for this compound: `CC(C)OC(C)(C)C` -3.87

Recorded solvation free energy, 298 K for `C1=CCCCC1` , please? -3.89

Consider the compound `COC=O` and give its measured solvation free energy, 298 K. -2.97

Continuing:
Sample `CC(C)OC(C)C` — what was its solvation free energy, 298 K? -3.48

May I ask what solvation free energy, 298 K has been recorded for `CCCCOC(C)=O` ? -5.24

---

- method-description: solvent given as SMILES
- experimental-parameters: in Cc1ccc(C)cc1
result-type: solvation free energy, 298 K (kcal/mol)
Note: unit kcal/mol is implicit; provide only the numeric part.

Take a look at these entries with their results.
May I ask what solvation free energy, 298 K has been recorded for `C1CCCCC1` ? -4.17

Which measured solvation free energy, 298 K value corresponds to `O=c1c2ccccc2sc2ccccc12` ? -12.6

# solvation free energy, 298 K lookup, item `c1ccccc1` -4.37

# get_value(readout='solvation free energy, 298 K', item= `Oc1ccc(O)cc1` ) -8.81

If you can, please state the reported solvation free energy, 298 K value of `ClCCCl` . -4.41

***
Fill blank: measured solvation free energy, 298 K of the compound `Oc1cccc(Cl)c1` is ____. -7.97

What solvation free energy, 298 K value was documented for this compound, `CCCC(C)C` ? -3.64

All figures here come from the CombiSolv-Exp solvation set (Vermeire and Green 2021).
